Source of measurements: paper PMC4336329

Provide the reported hERG current change (%, negative = inhibition) at 10uM of each item.
Molecular target: human ether-à-go-go-related gene (hERG) potassium channel (human);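 note: peak tail current of the secondary pulse compared with the same well before compound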
Experiment: primary screen, population patch clamp on CHO cells stably expressing hERG; higher = less effect of the substance
Protocol: Briefly, Chinese hamster ovary (CHO) cells stably expressing the hERG channel were dislodged from tissue culture flasks and dispensed into PPC plates. […] During the recording, background leak currents were estimated by a 100 ms step to -80 mV from an initial holding potential of -70 mV and subtracted from the subsequent current measurement. The campaign was conducted in two phases using slight differences in recording protocol. […]
About 14,000 (4.5%) of roughly 310,000 compounds showed an effect of 50% or more. Effects have a minus sign here. The sample holds strong results, similar compounds and a random draw of the others, so the mix is not that of the screen.
Please state the figure in %; there is no need to write the unit.

Exercise: What value of hERG current change (%, negative = inhibition) at 10uM has been reported for the following compound? OC(COc1ccc2cc(Br)ccc2c1)CN1CCCC1 (stereo not shown)
Solution: -70.2

Exercise: Next compound up: `CC(=O)N1CCN(C(=O)c2oc3ccccc3c2C)CC1`
Solution: 8.84

Exercise: Queued: `Cc1c(C(=O)N2CCN(CCc3ccccc3)CC2)oc2ccccc12`
Solution: -72.4

Exercise: Queued: Cl.OC(COc1ccc(Cl)cc1)CN1CCCCC1 (stereo not shown)
Solution: -61.9

Exercise: Same read-out for `Cc1cc(C(=O)N2CCN(Cc3ccc4c(c3)OCO4)CC2)on1` ?
Solution: -4.02

Exercise: What do you get for `O=C(c1cc(-c2ccccc2)on1)N1CCN(Cc2ccc3c(c2)OCO3)CC1` ?
Solution: -50.1

Exercise: Again, but for `O=C(c1cc2ccccc2oc1=O)N1CCN(Cc2ccc3c(c2)OCO3)CC1`
Solution: -53.7

Exercise: // query: `O=C(c1cc2ccccc2oc1=O)N1CCN(CCc2ccccc2)CC1`
Solution: -71.8

Exercise: Moving on to the next compound: OC(COc1ccc(OCC(O)CN2CCCCC2)cc1)CN1CCCCC1 (stereo not shown)
Solution: 15.9

Exercise: How about this compound: `COc1cc2cc(C(=O)N3CCN(Cc4ccc5c(c4)OCO5)CC3)c(=O)oc2cc1OC`
Solution: -0.572

---

Biological target: human ether-à-go-go-related gene (hERG) potassium channel (human, UniProt Q12809);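 note: peak tail current of the secondary pulse compared with the same well before compound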
Sequence (Q12809 whole entry, looked up): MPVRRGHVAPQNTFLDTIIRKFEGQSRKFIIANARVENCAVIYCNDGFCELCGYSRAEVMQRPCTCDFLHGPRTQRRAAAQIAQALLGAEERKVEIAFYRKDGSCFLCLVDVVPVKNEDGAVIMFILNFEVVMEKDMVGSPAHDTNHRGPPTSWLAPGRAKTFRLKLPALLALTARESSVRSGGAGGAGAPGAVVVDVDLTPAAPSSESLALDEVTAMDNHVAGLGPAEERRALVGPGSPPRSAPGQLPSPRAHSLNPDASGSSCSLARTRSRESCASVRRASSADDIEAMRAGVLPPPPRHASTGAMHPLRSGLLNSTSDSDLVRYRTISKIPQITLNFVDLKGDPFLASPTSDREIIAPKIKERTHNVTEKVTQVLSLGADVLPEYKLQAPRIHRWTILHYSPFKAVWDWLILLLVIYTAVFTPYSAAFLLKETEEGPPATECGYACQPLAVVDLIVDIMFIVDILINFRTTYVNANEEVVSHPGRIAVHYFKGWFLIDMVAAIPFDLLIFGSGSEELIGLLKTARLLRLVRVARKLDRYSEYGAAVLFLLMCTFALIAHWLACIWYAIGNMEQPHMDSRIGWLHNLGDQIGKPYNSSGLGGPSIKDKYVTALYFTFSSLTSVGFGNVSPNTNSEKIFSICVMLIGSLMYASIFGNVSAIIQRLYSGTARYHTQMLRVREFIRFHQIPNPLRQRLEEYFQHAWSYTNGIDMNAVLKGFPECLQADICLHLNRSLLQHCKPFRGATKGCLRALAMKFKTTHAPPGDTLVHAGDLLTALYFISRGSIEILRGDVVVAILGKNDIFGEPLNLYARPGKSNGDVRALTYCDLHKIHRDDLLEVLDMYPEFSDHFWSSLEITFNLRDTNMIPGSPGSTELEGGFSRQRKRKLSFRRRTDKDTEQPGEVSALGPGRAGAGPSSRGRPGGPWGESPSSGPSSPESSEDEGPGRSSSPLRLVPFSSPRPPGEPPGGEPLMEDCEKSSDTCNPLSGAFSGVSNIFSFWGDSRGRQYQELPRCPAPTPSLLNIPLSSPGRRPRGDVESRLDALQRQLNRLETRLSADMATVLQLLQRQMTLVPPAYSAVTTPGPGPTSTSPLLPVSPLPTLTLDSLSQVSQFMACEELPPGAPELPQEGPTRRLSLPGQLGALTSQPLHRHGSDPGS
Assay: primary screen, population patch clamp on CHO cells stably expressing hERG; higher = less effect of the substance
Screen size: about 310,000 compounds; about 14,000 (4.5%) showed an effect of 50% or more. Effects have a minus sign here. What follows is part of a selection rich in strong results, with near analogues and random picks from the rest.
property-name: hERG current change (%, negative = inhibition) at 10uM (%)
Number only, in %; omit the unit.

Exercise: Recorded hERG current change (%, negative = inhibition) at 10uM of `COc1ccc(OC)c(NC(=O)COc2ccc(S(=O)(=O)N3CCCC3)cc2)c1` , please.
Solution: -23.4

Exercise: Okay, and Cc1ccc2c(c1)C1CN(C)CCC1N2C(=O)c1cccc(S(=O)(=O)N(C)C)c1.c1ccccc1 (centres unmarked) ?
Solution: -25

Exercise: // query: Cc1ccc2c(c1)C1CN(C)CCC1N2S(=O)(=O)c1ccc(C#N)cc1 (centres unmarked)
Solution: -72.8

Exercise: # iterate: COc1cc(OC)c(OC)cc1CN1CCCC(C(=O)N2CCCC2)C1.O=C(O)C(=O)O (centres unmarked)
Solution: 17.4

Exercise: Can you check COc1cccc(CN2CCCC(C(=O)c3ccc4c(c3)OCO4)C2)c1OC (centres unmarked) next?
Solution: -63.3

Exercise: Next compound: `CCN(CC)c1ccc(NC(=O)COc2ccccc2C#N)cc1S(=O)(=O)Nc1ccc(OC)cc1`
Solution: 13

Exercise: Now give it for `O=C(CSc1nnc(-c2cccnc2)n1CCN1CCCCC1)Nc1cccc(Cl)c1` too.
Solution: -79.8

Exercise: Thanks! And Cc1ccc2c(c1)C1CN(C)CCC1N2S(=O)(=O)c1ccccc1F (centres unmarked) ?
Solution: -32.4

Exercise: Now try `CCCCN(CC)CCNC(=O)C1CCN(S(=O)(=O)c2cccc3nsnc23)CC1` .
Solution: -11

Exercise: What would you report for `CCOc1ccc(-c2c(C(=O)N/N=C/c3sccc3C)nnn2-c2nonc2N)cc1` ?
Solution: 19.7

Exercise: Item: Cc1ccc2c(c1)C1CN(C)CCC1N2Sc1ccccc1[N+](=O)[O-] (centres unmarked)
Solution: -62.8

Exercise: Entry to check: COc1ccc(C(C#N)C2(C)OCCO2)cc1OC (centres unmarked)
Solution: -4.08

Exercise: Likewise for CC1(C)CC(=O)c2cc(C(=O)NC3CCSC3=O)c(=O)n(-c3ccccc3)c2C1 (centres unmarked) ?
Solution: -0.214

Exercise: Similarly, `O=C(CSc1nnc(Cc2cccs2)n1-c1ccccc1)NC1CCCCC1` ?
Solution: -62.5

Exercise: Same question, `Cc1ccc2c(c1)[C@@H]1CN(C)CC[C@@H]1N2S(=O)(=O)c1ccc(F)cc1.Cl` this time
Solution: -29.1

Exercise: One more compound: `CC(C)[C@@H](C(=O)NCc1ccco1)N1C(=O)N2CCc3c([nH]c4ccccc34)[C@@]2(C)C1=O`
Solution: -15.6

Exercise: Item: COc1ccccc1C1OC(c2cccc([N+](=O)[O-])c2)=NN1C(C)=O (centres unmarked)
Solution: -62

Exercise: Cc1ccc(S(C)(=O)=O)cc1C(=O)N1CC(C(N)=O)Oc2ccccc21 (centres unmarked) ?
Solution: 15.6

Exercise: Note, next up: `COc1ccccc1S(=O)(=O)Cc1ccc(C(=O)NCCN2CCCCCC2)o1`
Solution: 2.78

Exercise: Consider next the compound `CCCn1c(SCC(=O)Nc2sc(C)c(C)c2C#N)nnc1C(C)C` in the same way.
Solution: -9.76

Exercise: Continue with `Cc1ccc(NC(=O)CSc2nnc(-c3cccnc3)n2CCN2CCCCC2)cc1`
Solution: -69

Exercise: Lookup CC(=O)N1N=C(c2cccc([N+](=O)[O-])c2)OC1c1ccccc1Cl (centres unmarked)
Solution: -25.8

Exercise: Okay, and COc1cccc(CN2CCCC(C(=O)N3CCCCC3)C2)c1OC.O=C(O)C(=O)O (centres unmarked) ?
Solution: -26.3

Exercise: Another compound to look at: `O=C(NC(=O)c1ccccc1)NC1(C(F)(F)F)OCCO1`
Solution: 2.65

Exercise: # iterate: `CCCCN(CC)CCCNC(=O)C1CCN(c2ncnc3c2sc2cccc(F)c23)CC1`
Solution: -70.3

Exercise: Check `Cc1csc(NC(=O)CCC(=O)N(CC(=O)NC2CCCC2)c2ccccc2)n1` too.
Solution: -3.43

Exercise: Lookup Cc1ccc2c(c1)C1CN(C)CCC1N2CC(=O)N(C)c1ccccc1 (centres unmarked)
Solution: 6.34

Exercise: Again, but for `COc1ccc(NC(=O)CCN2CCN(S(=O)(=O)c3ccc(F)cc3)CC2)cc1`
Solution: -6.32

Exercise: Try the compound `O=C(CN1C(=O)CSc2ncccc21)Nc1cccc(Cl)c1`
Solution: -25.4

Exercise: Lookup `O=C1CCCN1CCCNS(=O)(=O)c1ccc(F)cc1F`
Solution: 8.77

Exercise: Quick one: `COc1ccc(NC(=O)c2ccc(COc3ccccc3)o2)c(OC)c1`
Solution: -7.06

Exercise: Next record, please: `COc1cccc(-n2c(SCC(=O)NC3CCCC3)nnc2-c2ccco2)c1`
Solution: -73.7

Exercise: Again, but for `Cn1c(=O)c(=O)n(C)c2cc(S(=O)(=O)CCC(=O)NCc3ccccc3)ccc21`
Solution: 20

Exercise: Lookup `COc1ccccc1S(=O)(=O)Cc1ccc(C(=O)NCCN2CCCC2)o1`
Solution: -8.12

Exercise: Check `COc1ccc(/C=N/Nc2nncc3ccccc23)c(OC)c1` too.
Solution: 10.7

Exercise: Entry to check: `CS(=O)(=O)N(CC(=O)Nc1ccccc1C(=O)NCc1ccco1)c1ccc2c(c1)OCCO2`
Solution: -5.03

Exercise: Further, for `CSc1n[nH]c2nc3c(c(=O)n12)C1(CCCCC1)Cc1ccccc1-3` ?
Solution: -13

Exercise: Same again, this time with `CCOc1ccc(C(C)=O)cc1CSc1nc(C)cc(C)n1`
Solution: -6.21

---

Molecular target: human ether-à-go-go-related gene (hERG) potassium channel (human);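 note: peak tail current of the secondary pulse compared with the same well before compound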
Experiment: primary screen, population patch clamp on CHO cells stably expressing hERG; higher = less effect of the substance
The campaign covered roughly 310,000 compounds. About 14,000 (4.5%) showed an effect of 50% or more. Effects have a minus sign here. What follows is part of a selection rich in strong results, with near analogues and random picks from the rest.
property-name: hERG current change (%, negative = inhibition) at 10uM (%)
Reply numerically in %, unit not repeated.

Exercise: What reported hERG current change (%, negative = inhibition) at 10uM corresponds to `C[C@H]1CN=C(N(C)C)N1CCCCc1ccccc1` on human ether-à-go-go-related gene (hERG) potassium channel (human)?
Solution: -25.5

Exercise: Try this molecule too: COc1ccc(O)c(CN2CCCC(N3CCN(c4ccc(F)cc4)CC3)C2)c1 (centres unmarked)
Solution: -59.7

Exercise: Moving on to the next molecule: CC(C)/C=C/CN1CCCC(N2CCN(c3cccc(Cl)c3)CC2)C1 (centres unmarked)
Solution: -50.7

Exercise: Now the molecule O=C(c1ccc2c3c(cccc13)CC2)C1CCCN(C(=O)c2ccc(=O)[nH]c2)C1 (centres unmarked)
Solution: 4.99

Exercise: Now this one: `O=C(c1ccccc1[N+](=O)[O-])N1CCCN(C(=O)c2ccccc2[N+](=O)[O-])CC1`
Solution: -14.8

Exercise: // same read-out, input: `CCCCN(C)CCNC(=O)C1CCN(S(=O)(=O)c2cccc3nsnc23)CC1`
Solution: -15.3

Exercise: Now this one: `CCn1cc(S(=O)(=O)NCc2ccccc2Br)cn1`
Solution: -1.6

Exercise: Here is the next molecule: COc1ccccc1N1CCN(C2CCCN(Cc3cccc(O)c3)C2)CC1 (centres unmarked)
Solution: -9.65

Exercise: Next molecule up: COc1cc(CN2CCCC(N3CCN(c4ccccc4C)CC3)C2)ccc1O (centres unmarked)
Solution: -27

Exercise: Another molecule: `Cc1c(C(=O)N2CCC3(CC2)CC(=O)c2ccccc2O3)cccc1[N+](=O)[O-]`
Solution: -83.2

Exercise: Same lookup for `CC(C)OC(=O)CC(=O)CSc1nc2c(c(-c3cccs3)c1C#N)CCC2` , please.
Solution: -8.89

Exercise: Likewise for `CCCCCCCN1C(N(C)C)=NC[C@@H]1Cc1ccccc1` ?
Solution: -80.1

Exercise: Now the molecule `Fc1ccc(-c2nnn(Cc3nc4ccccc4s3)n2)cc1`
Solution: -11.2

Exercise: Next record, please: `CCN1C(N(C)C)=NC[C@@H]1Cc1ccccc1`
Solution: -1.57

Exercise: Continue with `CC(C)C[C@H]1CN=C(N(C)C)N1CCCCc1ccccc1`
Solution: -64.7

Exercise: Here is the next molecule: `Cc1c(C(=O)N2CCC(C)CC2)cccc1[N+](=O)[O-]`
Solution: 26.1

Exercise: Can you handle `O=C(Nc1ccnn1C1CCN(Cc2cccc(OCCO)c2)CC1)c1cccc(F)c1` next?
Solution: -12.3

Exercise: Can you handle `O=C(Nc1ccnn1C1CCN(Cc2ccc(C#CCCO)cc2)CC1)c1cccc(F)c1` next?
Solution: -77.3

Exercise: Thanks! And `Cc1ccc2[nH]c(=O)c(CNS(=O)(=O)c3ccccc3)c(-c3ccccc3)c2c1` ?
Solution: 16.2

Exercise: Record: Cc1ccc(/C(O)=C2/C(=O)C(=O)N(c3ccccn3)C2c2ccc([N+](=O)[O-])cc2)cc1 (centres unmarked)
Solution: 8.83
